- System: glycogen synthase kinase-3 (GSK3A per assay name; protocol says GSK3B)
- test.description: compounds binding glycogen synthase kinase-3 – biochemical, small-molecule microarray, 635 nm fluorescence, GSK3A, primary screen (AID 1103); also: the record names both GSK3A and GSK3B
- experimental.parameters: fluorescence 635 nm, higher = more signal

{"columns": ["line.notation", "composite z-score"],
 "data": [
  ["CCCNC(=O)[C@@H]1c2ccccc2C(=O)N(CC23CC4CC(CC(C4)C2)C3)[C@H]1c1ccc(CO)cc1", 1.15],
  ["COc1ccc([Si](C)(C)[C@@H]2[C@@H](CCO)O[C@]3(C(=O)N(Cc4ccccc4)c4ccc(N5CCCCC5=O)cc43)[C@H]2C)cc1", 1.1],
  ["COc1ccccc1CN1C(=O)c2ccccc2[C@](Cc2ccccc2I)(C(=O)NCCN2CCOCC2)[C@@H]1c1ccc(CO)cc1", 1.31],
  ["CCCC=C(CCC)[C@@H](NS(=O)(=O)CC)c1ccccc1", 1.12]
]}

Entry source: PubChem BioAssay
